assay: Pharmacokinetics of flumatinib, M1 and M3 in plasma after a single oral 400 mg dose of flumatinib mesylate tablets, fasting vs high-fat diet (LC-MS/MS, non-compartmental); conditions: human, plasma, po, 400 mg, Cmax (least-square geometric mean), High-fat diet (N = 11), food-effect analysis, single oral 400 mg
propertyLabel: Cmax

• Cc1ncc(NC(=O)c2ccc(CN3CCN(C)CC3)c(C(F)(F)F)c2)cc1Nc1nccc(-c2cccnc2)n1 [flumatinib] = 123 ng/mL

----------
assay: Pharmacokinetics of flumatinib, M1 and M3 in plasma after a single oral 400 mg dose of flumatinib mesylate tablets, fasting vs high-fat diet (LC-MS/MS, non-compartmental); settings: human, plasma, po, 400 mg, AUC0-∞ (least-square geometric mean), High-fat diet (N = 11), food-effect analysis, single oral 400 mg
propertyLabel: AUC(0-inf) (µg·h/mL)

* Cc1ncc(NC(=O)c2ccc(CN3CCN(C)CC3)c(C(F)(F)F)c2)cc1Nc1nccc(-c2cccnc2)n1 [flumatinib] | 1.18

----------
assay: Pharmacokinetics of flumatinib, M1 and M3 in plasma after a single oral 400 mg dose of flumatinib mesylate tablets, fasting vs high-fat diet (LC-MS/MS, non-compartmental); details: human, plasma, po, 400 mg, AUC0–t (least-square geometric mean), High-fat diet (N = 11), food-effect analysis, single oral 400 mg
propertyLabel: AUC(0-t) (ng·h/mL)

• Cc1ncc(NC(=O)c2ccc(CN3CCN(C)CC3)c(C(F)(F)F)c2)cc1Nc1nccc(-c2cccnc2)n1 [flumatinib] = 1170

----------
assay: Pharmacokinetics of flumatinib, M1 and M3 in plasma after a single oral 400 mg dose of flumatinib mesylate tablets, fasting vs high-fat diet (LC-MS/MS, non-compartmental); conditions: human, plasma, po, 400 mg, t1/2, High-fat diet (N = 12), mean ± SD, single oral 400 mg
propertyLabel: half-life

• Cc1ncc(NC(=O)c2ccc(CN3CCN(C)CC3)c(C(F)(F)F)c2)cc1Nc1nccc(-c2cccnc2)n1 = 15.5 h

----------
assay: Pharmacokinetics of flumatinib, M1 and M3 in plasma after a single oral 400 mg dose of flumatinib mesylate tablets, fasting vs high-fat diet (LC-MS/MS, non-compartmental); details: human, plasma, po, 400 mg, Cmax (least-square geometric mean), Fasting (N = 11), food-effect analysis, single oral 400 mg
propertyLabel: Cmax (ng/mL)

- Cc1ncc(NC(=O)c2ccc(CN3CCN(C)CC3)c(C(F)(F)F)c2)cc1Nc1nccc(-c2cccnc2)n1 [flumatinib]: 43.7

----------
experiment: Pharmacokinetics of flumatinib, M1 and M3 in plasma after a single oral 400 mg dose of flumatinib mesylate tablets, fasting vs high-fat diet (LC-MS/MS, non-compartmental); conditions: human, plasma, po, 400 mg, Cmax, Fasting (N = 11), mean ± SD, single oral 400 mg
propertyLabel: Cmax (ng/mL)

• Cc1ncc(NC(=O)c2ccc(CN3CCN(C)CC3)c(C(F)(F)F)c2)cc1Nc1nccc(-c2cccnc2)n1 [flumatinib] = 50.7

----------
assay: Pharmacokinetics of flumatinib, M1 and M3 in plasma after a single oral 400 mg dose of flumatinib mesylate tablets, fasting vs high-fat diet (LC-MS/MS, non-compartmental); details: human, plasma, po, 400 mg, AUC0-∞, Fasting (N = 11), mean ± SD, single oral 400 mg
propertyLabel: AUC(0-inf)

- Cc1ncc(NC(=O)c2ccc(CN3CCN(C)CC3)c(C(F)(F)F)c2)cc1Nc1nccc(-c2cccnc2)n1 [flumatinib]: 847 ng·h/mL

----------
conditions: human, in vivo
propertyLabel: Cmax (ng/mL)

- Cc1ncc(NC(=O)c2ccc(CN3CCNCC3)c(C(F)(F)F)c2)cc1Nc1nccc(-c2cccnc2)n1: 54.7

----------
experiment: Pharmacokinetics of flumatinib, M1 and M3 in plasma after a single oral 400 mg dose of flumatinib mesylate tablets, fasting vs high-fat diet (LC-MS/MS, non-compartmental); conditions: human, plasma, po, 400 mg, AUC0–t (least-square geometric mean), Fasting (N = 11), food-effect analysis, single oral 400 mg
propertyLabel: AUC(0-t) (ng·h/mL)

* Cc1ncc(NC(=O)c2ccc(CN3CCN(C)CC3)c(C(F)(F)F)c2)cc1Nc1nccc(-c2cccnc2)n1 | 696

----------
test: Pharmacokinetics of flumatinib, M1 and M3 in plasma after a single oral 400 mg dose of flumatinib mesylate tablets, fasting vs high-fat diet (LC-MS/MS, non-compartmental); conditions: human, plasma, po, 400 mg, AUC0-∞ (least-square geometric mean), Fasting (N = 11), food-effect analysis, single oral 400 mg
propertyLabel: AUC(0-inf) (ng·h/mL)

• Cc1ncc(NC(=O)c2ccc(CN3CCN(C)CC3)c(C(F)(F)F)c2)cc1Nc1nccc(-c2cccnc2)n1 = 710

----------
experiment: Pharmacokinetics of flumatinib, M1 and M3 in plasma after a single oral 400 mg dose of flumatinib mesylate tablets, fasting vs high-fat diet (LC-MS/MS, non-compartmental); details: human, plasma, po, 400 mg, Cmax, High-fat diet (N = 12), mean ± SD, single oral 400 mg
propertyLabel: Cmax (ng/mL)

* Cc1ncc(NC(=O)c2ccc(CN3CCN(C)CC3)c(C(F)(F)F)c2)cc1Nc1nccc(-c2cccnc2)n1 | 132
